This listing pairs variants with measured self-cleavage kobs at 10000 uM GlcN6P.
B1: glmS ribozyme (parent)
chain: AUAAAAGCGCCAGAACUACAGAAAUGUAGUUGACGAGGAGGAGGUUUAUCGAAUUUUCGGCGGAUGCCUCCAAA

Variants of: B1
Test: self-cleavage kobs at 10000 uM GlcN6P; higher = faster cleavage; RNA array
Settings: with glucosamine-6-phosphate
Fewer inactive variants are shown than the library holds.

variant name: G35U G40U
value units: s⁻¹
rel: <
self-cleavage kobs at 10000 uM GlcN6P: 1e-05
//
variant name: A12U A42C
value units: s⁻¹
rel: =
self-cleavage kobs at 10000 uM GlcN6P: 1.89e-05
//
variant name: C16U A42U G62A C67A
value units: s⁻¹
rel: <
self-cleavage kobs at 10000 uM GlcN6P: 1e-05
//
variant name: C8U C10U C70G
value units: s⁻¹
rel: =
self-cleavage kobs at 10000 uM GlcN6P: 5.37e-05
//
variant name: C19A U56G C68U
value units: s⁻¹
rel: =
self-cleavage kobs at 10000 uM GlcN6P: 0.000435
//
variant name: G43U C67G
value units: s⁻¹
rel: =
self-cleavage kobs at 10000 uM GlcN6P: 0.00166
//
variant name: G21A
value units: s⁻¹
rel: =
self-cleavage kobs at 10000 uM GlcN6P: 0.0758
//
variant name: A6C G9C C50A C58A A64U C70G
value units: s⁻¹
rel: <
self-cleavage kobs at 10000 uM GlcN6P: 1e-05
//
variant name: C50A G62U
value units: s⁻¹
rel: <
self-cleavage kobs at 10000 uM GlcN6P: 1e-05
//
variant name: C11A G63A
value units: s⁻¹
rel: <
self-cleavage kobs at 10000 uM GlcN6P: 1e-05
//
variant name: A33U G43U
value units: s⁻¹
rel: <
self-cleavage kobs at 10000 uM GlcN6P: 1e-05
